Hello, the source for this data is the supplement of paper PMC9112550, in case you need it.

Below, each entry is listed alongside its reported shrunken log2 fold change.
# Test system: Escherichia coli TOP10
# ASSAY REMARKS: shrunken log2 fold change of peptide-encoding DNA abundance (4.5 h post-induction vs induction); higher = less antimicrobial activity (less host growth inhibition)
# MEASUREMENT CONDITIONS: time post-induction: 4.5 h; library: site-saturation at positions 5, 18, 19, 20

SEQUENCE RECORD | shrunken log2 fold change
RRIRARPPRLPRPRPRPLPWPRP | 0.51
RRIRSRPPRLPRPRPRPEKTPRP | 0.125
RRIRLRPPRLPRPRPRPEMSPRP | -0.0316
RRIRSRPPRLPRPRPRPQKHPRP | -0.106
RRIRQRPPRLPRPRPRPQCHPRP | -0.0344
RRIRSRPPRLPRPRPRPQPYPRP | -0.159

* * *

# Tested on: Escherichia coli TOP10
# ASSAY REMARKS: shrunken log2 fold change of peptide-encoding DNA abundance (4.5 h post-induction vs induction); higher = less antimicrobial activity (less host growth inhibition)
# MEASUREMENT CONDITIONS: time post-induction: 4.5 h; library: site-saturation at positions 5, 18, 19, 20

SEQUENCE RECORD | shrunken log2 fold change
RRIRPRPPRLPRPRPRPEQHPRP | 0.214
RRIRMRPPRLPRPRPRPRTSPRP | 0.623
RRIRWRPPRLPRPRPRPMDLPRP | -0.214
RRIRWRPPRLPRPRPRPVGTPRP | 0.235
RRIRQRPPRLPRPRPRPSDLPRP | -0.333
RRIRGRPPRLPRPRPRPDFMPRP | 0.545
RRIRNRPPRLPRPRPRPLSCPRP | -0.238
RRIRERPPRLPRPRPRPAAGPRP | 0.315
RRIRQRPPRLPRPRPRPAGWPRP | 0.808
RRIRPRPPRLPRPRPRPQCAPRP | 0.167
RRIRGRPPRLPRPRPRPLDFPRP | 0.78
RRIRPRPPRLPRPRPRPNWDPRP | 0.0377
RRIRCRPPRLPRPRPRPHVDPRP | -0.617
RRIRNRPPRLPRPRPRPWRDPRP | -0.342
RRIRWRPPRLPRPRPRPMDCPRP | -0.0839
RRIRDRPPRLPRPRPRPWDVPRP | -0.00145
RRIRWRPPRLPRPRPRPNNYPRP | -0.571
RRIRNRPPRLPRPRPRPEYIPRP | -0.0947
RRIRRRPPRLPRPRPRPEQCPRP | -0.00836
RRIRKRPPRLPRPRPRPDCRPRP | -0.00777
RRIRERPPRLPRPRPRPGTQPRP | -0.0335
RRIRVRPPRLPRPRPRPNVNPRP | -0.494
RRIRIRPPRLPRPRPRPDRFPRP | 0.0544
RRIRVRPPRLPRPRPRPQRHPRP | -0.0604
RRIRWRPPRLPRPRPRPDAFPRP | 0.0334
RRIRTRPPRLPRPRPRPARRPRP | 0.204
RRIRARPPRLPRPRPRPQRNPRP | -0.0146
RRIRWRPPRLPRPRPRPDLPPRP | 0.0222
RRIRWRPPRLPRPRPRPIRRPRP | -0.00924
RRIRKRPPRLPRPRPRPCGFPRP | 0.279
RRIRKRPPRLPRPRPRPVDKPRP | 0.0581
RRIRQRPPRLPRPRPRPFYHPRP | -0.368
RRIRHRPPRLPRPRPRPPRKPRP | -0.0559
RRIRVRPPRLPRPRPRPQSRPRP | 0.0616
RRIRGRPPRLPRPRPRPPYKPRP | 0.18
RRIRGRPPRLPRPRPRPGAWPRP | 1.56
RRIRTRPPRLPRPRPRPCIYPRP | -0.264
RRIRERPPRLPRPRPRPQVLPRP | -0.0121
RRIRIRPPRLPRPRPRPKPFPRP | -0.00302
RRIRGRPPRLPRPRPRPCMTPRP | 2.89
RRIRQRPPRLPRPRPRPLNIPRP | -0.315
RRIRKRPPRLPRPRPRPHHWPRP | 0.706
RRIRSRPPRLPRPRPRPSGLPRP | 0.177
RRIRMRPPRLPRPRPRPDKYPRP | -0.212
RRIRTRPPRLPRPRPRPFMYPRP | -0.576
RRIRFRPPRLPRPRPRPAFAPRP | 0.33
RRIRSRPPRLPRPRPRPNYLPRP | -0.071
RRIRWRPPRLPRPRPRPNARPRP | 0.0903
RRIRNRPPRLPRPRPRPHIDPRP | -0.186
RRIRIRPPRLPRPRPRPVCGPRP | -0.0405
RRIRTRPPRLPRPRPRPNCRPRP | -0.00739
RRIRTRPPRLPRPRPRPSSLPRP | -0.0765
RRIRCRPPRLPRPRPRPHRDPRP | -0.3

* * *

# System: Escherichia coli TOP10
# ASSAY REMARKS: shrunken log2 fold change of peptide-encoding DNA abundance (4.5 h post-induction vs induction); higher = less antimicrobial activity (less host growth inhibition)
# MEASUREMENT CONDITIONS: time post-induction: 4.5 h; library: site-saturation at positions 5, 18, 19, 20
Given measured shrunken log2 fold change, output y if it is greater than or equal to 0.2 and n if not.

SEQUENCE RECORD | LABEL
RRIRCRPPRLPRPRPRPESAPRP | y
RRIRDRPPRLPRPRPRPPRDPRP | y
RRIRIRPPRLPRPRPRPCVGPRP | n
RRIRERPPRLPRPRPRPPQEPRP | n
RRIRKRPPRLPRPRPRPDVIPRP | n
RRIRNRPPRLPRPRPRPPRHPRP | y
RRIRIRPPRLPRPRPRPMVIPRP | n
RRIRPRPPRLPRPRPRPDDVPRP | n
RRIRWRPPRLPRPRPRPFPNPRP | n
RRIRTRPPRLPRPRPRPQCIPRP | n

* * *

# Test system: Escherichia coli TOP10
# ASSAY REMARKS: shrunken log2 fold change of peptide-encoding DNA abundance (4.5 h post-induction vs induction); higher = less antimicrobial activity (less host growth inhibition)
# MEASUREMENT CONDITIONS: time post-induction: 4.5 h; library: site-saturation at positions 5, 18, 19, 20
Kind request: treat -0.2 as inclusive, so shrunken log2 fold change at -0.2 or higher is yes (1), anything lower is no (0).

SEQUENCE RECORD | LABEL
RRIRSRPPRLPRPRPRPAMMPRP | yes (1)
RRIRCRPPRLPRPRPRPLKKPRP | no (0)
RRIRLRPPRLPRPRPRPNLRPRP | yes (1)
RRIRFRPPRLPRPRPRPTITPRP | no (0)
RRIRWRPPRLPRPRPRPVVGPRP | yes (1)
RRIRGRPPRLPRPRPRPSSLPRP | no (0)
RRIRRRPPRLPRPRPRPGPRPRP | yes (1)
RRIRKRPPRLPRPRPRPNNSPRP | no (0)
RRIRFRPPRLPRPRPRPSHMPRP | no (0)
RRIRLRPPRLPRPRPRPGKYPRP | no (0)
RRIRERPPRLPRPRPRPGFPPRP | yes (1)
RRIRTRPPRLPRPRPRPQIYPRP | yes (1)
RRIRCRPPRLPRPRPRPCKIPRP | no (0)
RRIRCRPPRLPRPRPRPFMRPRP | yes (1)
RRIRTRPPRLPRPRPRPRWHPRP | yes (1)
RRIRVRPPRLPRPRPRPDWRPRP | yes (1)
RRIRIRPPRLPRPRPRPYPKPRP | yes (1)
RRIRCRPPRLPRPRPRPMAIPRP | yes (1)
RRIRSRPPRLPRPRPRPHFEPRP | no (0)
RRIRVRPPRLPRPRPRPSVPPRP | yes (1)
RRIRYRPPRLPRPRPRPEKNPRP | no (0)
RRIRRRPPRLPRPRPRPWPHPRP | yes (1)

* * *

# Test system: Escherichia coli TOP10;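 further: peptides expressed intracellularly from a pBAD plasmid library in pooled LB shake-flask culture, induced with 0.3% L-arabinose, DNA abundance read by NGS, three biological replicates, DESeq2 with apeglm shrinkage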
# ASSAY REMARKS: shrunken log2 fold change of peptide-encoding DNA abundance (4.5 h post-induction vs induction); higher = less antimicrobial activity (less host growth inhibition)
# MEASUREMENT CONDITIONS: time post-induction: 4.5 h; library: site-saturation at positions 5, 18, 19, 20
Recorded measurements of shrunken log2 fold change, one per entry
MEASURED PARAMETER: shrunken log2 fold change

SEQUENCE RECORD | MEASURED PARAMETER | RESULT
RRIRCRPPRLPRPRPRPTKLPRP | shrunken log2 fold change | -0.132
RRIRRRPPRLPRPRPRPIFFPRP | shrunken log2 fold change | 0.261
RRIRTRPPRLPRPRPRPPSRPRP | shrunken log2 fold change | 0.191
RRIRARPPRLPRPRPRPDKYPRP | shrunken log2 fold change | 1.5
RRIRSRPPRLPRPRPRPMCWPRP | shrunken log2 fold change | 0.318
RRIRLRPPRLPRPRPRPTTVPRP | shrunken log2 fold change | -0.175
RRIRDRPPRLPRPRPRPDNEPRP | shrunken log2 fold change | -0.0213
RRIRHRPPRLPRPRPRPMQKPRP | shrunken log2 fold change | -0.0124
RRIRYRPPRLPRPRPRPFINPRP | shrunken log2 fold change | -1.17
RRIRVRPPRLPRPRPRPCTMPRP | shrunken log2 fold change | -0.193
RRIRTRPPRLPRPRPRPGVNPRP | shrunken log2 fold change | -0.0412
RRIRQRPPRLPRPRPRPFNHPRP | shrunken log2 fold change | 0.0419
RRIRCRPPRLPRPRPRPWQFPRP | shrunken log2 fold change | -0.0402
RRIRYRPPRLPRPRPRPYSPPRP | shrunken log2 fold change | -0.0311
RRIRKRPPRLPRPRPRPIHKPRP | shrunken log2 fold change | -0.211
RRIRGRPPRLPRPRPRPVGMPRP | shrunken log2 fold change | 0.907
RRIRARPPRLPRPRPRPKPLPRP | shrunken log2 fold change | 0.455
RRIRPRPPRLPRPRPRPYVRPRP | shrunken log2 fold change | -0.61
RRIRGRPPRLPRPRPRPVQEPRP | shrunken log2 fold change | 0.873
RRIRTRPPRLPRPRPRPVYEPRP | shrunken log2 fold change | 0.00717
RRIRPRPPRLPRPRPRPTDFPRP | shrunken log2 fold change | -0.193
RRIRSRPPRLPRPRPRPPMTPRP | shrunken log2 fold change | 0.243
RRIRARPPRLPRPRPRPCQIPRP | shrunken log2 fold change | -0.486
RRIRSRPPRLPRPRPRPSVRPRP | shrunken log2 fold change | -0.0911
RRIRKRPPRLPRPRPRPGGAPRP | shrunken log2 fold change | 0.729
RRIRFRPPRLPRPRPRPCIVPRP | shrunken log2 fold change | -0.637
RRIRARPPRLPRPRPRPWIEPRP | shrunken log2 fold change | -0.105
RRIRSRPPRLPRPRPRPMQSPRP | shrunken log2 fold change | -0.00143
RRIRVRPPRLPRPRPRPSWEPRP | shrunken log2 fold change | -0.0979
RRIRDRPPRLPRPRPRPNWLPRP | shrunken log2 fold change | 0.0018
RRIRLRPPRLPRPRPRPLYPPRP | shrunken log2 fold change | -0.12
RRIRNRPPRLPRPRPRPRNAPRP | shrunken log2 fold change | 0.0122
RRIRRRPPRLPRPRPRPLCDPRP | shrunken log2 fold change | 0.422
RRIRVRPPRLPRPRPRPEHWPRP | shrunken log2 fold change | 0.28
RRIRGRPPRLPRPRPRPHYFPRP | shrunken log2 fold change | 0.313
RRIRDRPPRLPRPRPRPRHWPRP | shrunken log2 fold change | 0.548
RRIRHRPPRLPRPRPRPMRTPRP | shrunken log2 fold change | -0.11
RRIRLRPPRLPRPRPRPREQPRP | shrunken log2 fold change | 0.134
RRIRCRPPRLPRPRPRPRRYPRP | shrunken log2 fold change | -0.0183
RRIRARPPRLPRPRPRPRPDPRP | shrunken log2 fold change | 0.819
RRIRARPPRLPRPRPRPYMHPRP | shrunken log2 fold change | -0.361
